Reference source for all entries: ChEMBL document CHEMBL1145498

Consider the following ΔTm values measured on Dual specificity mitogen-activated protein kinase kinase 2 (Homo sapiens, UniProt P36507).
Sequence (P36507 whole entry): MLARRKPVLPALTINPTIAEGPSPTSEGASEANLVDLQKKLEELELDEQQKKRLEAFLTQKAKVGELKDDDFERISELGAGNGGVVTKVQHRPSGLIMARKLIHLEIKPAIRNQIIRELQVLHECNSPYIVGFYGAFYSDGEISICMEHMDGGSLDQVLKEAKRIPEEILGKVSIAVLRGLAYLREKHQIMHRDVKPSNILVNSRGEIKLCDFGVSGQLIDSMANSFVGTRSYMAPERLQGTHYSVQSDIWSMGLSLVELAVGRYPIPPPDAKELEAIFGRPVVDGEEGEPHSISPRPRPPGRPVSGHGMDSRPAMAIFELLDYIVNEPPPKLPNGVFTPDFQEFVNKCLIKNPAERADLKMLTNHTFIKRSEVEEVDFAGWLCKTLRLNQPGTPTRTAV
// return numeric value only (unit: °C, not printed)

If you can, please state the reported ΔTm value of N=C(N)NCCNS(=O)(=O)c1cccc2cnccc12 .
-0.6

Then this molecule: N#CC(C#N)=Cc1ccc(O)c(O)c1 [TYRPHOSTIN 23]
0.1

Now this one: CSc1nc(-c2ccc(F)cc2)c(-c2ccnc(NC(C)c3ccccc3)c2)[nH]1 (racemic)
0.1

Ok, now O=C(Nc1cccc(Nc2nccc(Nc3cccc(C(F)(F)F)c3)n2)c1)C1CC1 [ANILINOPYRIMIDINE1]
0.8

----------
- target of assay: Serine/threonine-protein kinase OSR1 (Homo sapiens) (UniProt O95747)
- Sequence (O95747 2-527 limits assumed): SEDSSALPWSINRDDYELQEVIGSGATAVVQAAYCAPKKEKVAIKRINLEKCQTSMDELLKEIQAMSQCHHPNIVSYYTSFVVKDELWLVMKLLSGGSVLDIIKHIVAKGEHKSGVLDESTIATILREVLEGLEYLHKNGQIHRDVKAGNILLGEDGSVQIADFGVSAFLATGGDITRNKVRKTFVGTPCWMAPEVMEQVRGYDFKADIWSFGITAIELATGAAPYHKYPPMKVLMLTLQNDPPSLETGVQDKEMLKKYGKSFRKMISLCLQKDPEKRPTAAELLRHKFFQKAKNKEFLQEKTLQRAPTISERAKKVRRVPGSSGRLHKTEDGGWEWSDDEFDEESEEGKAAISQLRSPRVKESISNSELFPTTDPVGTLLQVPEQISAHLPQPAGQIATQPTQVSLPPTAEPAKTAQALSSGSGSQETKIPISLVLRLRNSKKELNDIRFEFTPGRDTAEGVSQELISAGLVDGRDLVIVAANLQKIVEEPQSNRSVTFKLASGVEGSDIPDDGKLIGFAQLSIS
reported endpoint: ΔTm (°C)
Please give a number only; it is taken to be in °C.

Data request, read-out ΔTm, for NC(=O)c1ccc2[nH]c(-c3ccc(Oc4ccc(Cl)cc4)cc3)nc2c1
0.8

Follow-up item: O=C1c2ccccc2-c2n[nH]c3cccc1c23
3.2

Please give the result for O=C(Nc1cccc(Nc2nccc(Nc3cccc(C(F)(F)F)c3)n2)c1)C1CC1 [ANILINOPYRIMIDINE1] too.
1.2

Now try NCCNS(=O)(=O)c1cccc2c(Cl)cccc12 .
0.7

Proceed to CC[C@H](CO)Nc1nc(NCc2ccccc2)c2ncn(C(C)C)c2n1 [SELICICLIB]
1

----------
Give ΔTm for every item shown.
- target of assay: Calcium/calmodulin-dependent protein kinase type II subunit beta (Homo sapiens) (UniProt Q13554)
- Sequence (Q13554 whole entry): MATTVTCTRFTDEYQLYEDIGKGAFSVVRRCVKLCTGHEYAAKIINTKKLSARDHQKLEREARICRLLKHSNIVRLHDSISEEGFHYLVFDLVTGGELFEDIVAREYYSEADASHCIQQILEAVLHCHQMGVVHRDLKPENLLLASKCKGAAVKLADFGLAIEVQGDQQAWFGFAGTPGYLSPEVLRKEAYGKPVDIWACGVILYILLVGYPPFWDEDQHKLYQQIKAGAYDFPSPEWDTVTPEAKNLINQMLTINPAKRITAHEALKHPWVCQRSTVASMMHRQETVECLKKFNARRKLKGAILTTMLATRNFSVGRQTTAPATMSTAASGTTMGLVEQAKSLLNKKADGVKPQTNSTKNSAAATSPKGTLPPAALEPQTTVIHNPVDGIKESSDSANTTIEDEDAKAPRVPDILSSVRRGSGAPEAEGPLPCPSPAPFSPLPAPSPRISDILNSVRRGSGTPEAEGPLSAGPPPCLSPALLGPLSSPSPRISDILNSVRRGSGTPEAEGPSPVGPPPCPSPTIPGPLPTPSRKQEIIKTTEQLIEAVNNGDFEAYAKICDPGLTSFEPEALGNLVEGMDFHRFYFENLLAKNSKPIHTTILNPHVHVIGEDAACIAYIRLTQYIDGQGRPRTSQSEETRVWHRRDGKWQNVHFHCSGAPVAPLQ
Write the number in °C without appending the unit.

What ΔTm value was documented for this molecule, CC(C)N(CCO)c1nc(Nc2cccc(Cl)c2)c2ncn(C(C)C)c2n1 ?
0.4

Would you kindly repeat that for NC1=N/C(=C2/CCNC(=O)c3[nH]ccc32)C(=O)N1 [DEBROMOHYMENIALDISINE] ?
0.7

# iterate: COc1cc2c(cc1OC)-c1n[nH]c(Nc3cccc(F)c3)c1C2
-0.3

Now consider COc1cc2ncnc(Nc3ccc(F)c(Cl)c3)c2cc1OCCCN1CCOCC1 .
0.3

How about this molecule: Nc1nc(Nc2ccc(S(N)(=O)=O)cc2)nn1C(=S)Nc1c(F)cccc1F
1.6

Request: Cc1nc(Nc2ncc(C(=O)Nc3c(C)cccc3Cl)s2)cc(N2CCN(CCO)CC2)n1
-0.3

What would you report for Clc1ccc(Nc2nnc(Cc3ccncc3)c3ccccc23)cc1 ?
-0.3

Same again, this time with N#C/C(=C\c1ccc(O)c(O)c1)C(=O)Nc1ccccc1
0.2

Next record, please: O=c1cc(-c2ccc(O)cc2)oc2cc(O)cc(O)c12
0.5

Then this molecule: COc1ccc(S(=O)(=O)N(CCO)c2ccccc2CN(C)C/C=C/c2ccc(Cl)cc2)cc1
-1.6

// query: CC(C)(C)c1nc2c3ccc(F)cc3c3c(=O)[nH]ccc3c2[nH]1
1.3

What do we get for CN(c1cccnc1)c1cc2c(Nc3ccc(F)c(Cl)c3)c(C#N)cnc2cn1 ?
1.2

Next up: Cn1cc(/C=C2/C(=O)Nc3ccc(S(N)(=O)=O)cc32)c2ccccc21
0.1

Same read-out for COc1cc2ncnc(Nc3cccc(O)c3)c2cc1OC ?
0.2

Same question, OC[C@H]1O[C@@H](n2cnc3cc(Cl)c(Cl)cc32)[C@H](O)[C@@H]1O this time
-0.1

Next record, please: N#CC(C#N)=Cc1ccc(O)c(O)c1 [TYRPHOSTIN 23]
0.1

Please do the same for O=C1Nc2ccccc2/C1=C\c1ccc[nH]1 as well.
0.6

Next molecule: O=C(O)Cc1ccc(O)c([N+](=O)[O-])c1
0.6

Also, Cc1ccc(NC2=CC(=O)c3sc(C)nc3C2=O)cc1 please.
-0.6

Another molecule to look at: Cc1ccc(NC(=O)c2cccc(N(C)C)c2)cc1NC(=O)c1ccc(O)cc1
0.4

What do you get for CC(C)(C)c1cc(C=C2C(=O)C=CC2=O)cc(C(C)(C)C)c1O ?
-0.3

Again, but for O=C1c2ccccc2-[n+]2ccc3c([nH]c4ccccc43)c21 [FASCAPLYSIN CHLORIDE]
-2

----------
- target of assay: Casein kinase I isoform epsilon (Homo sapiens)
- Sequence (P49674 whole entry, canonical isoform): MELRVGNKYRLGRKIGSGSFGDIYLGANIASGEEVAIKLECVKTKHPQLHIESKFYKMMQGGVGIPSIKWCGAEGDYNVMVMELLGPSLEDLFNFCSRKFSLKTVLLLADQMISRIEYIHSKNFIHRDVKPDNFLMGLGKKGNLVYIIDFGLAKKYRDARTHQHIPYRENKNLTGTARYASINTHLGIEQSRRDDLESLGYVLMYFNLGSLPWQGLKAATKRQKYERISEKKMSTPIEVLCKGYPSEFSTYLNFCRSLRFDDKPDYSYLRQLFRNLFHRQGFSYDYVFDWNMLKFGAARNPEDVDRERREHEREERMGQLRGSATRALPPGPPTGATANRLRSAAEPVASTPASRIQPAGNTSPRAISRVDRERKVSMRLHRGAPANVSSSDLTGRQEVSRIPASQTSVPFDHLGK
- measurement notes: Inhibition of CK1epsilon
reported endpoint: pIC50
In simple prose, pIC50 is minus the logarithm base ten of a concentration in moles per litre.

Recorded pIC50 of COc1cc(OC)c(/C=C2\C(=O)Nc3ccccc32)c(OC)c1 , please.
6.22

----------
- target of assay: Calcium/calmodulin-dependent protein kinase type IV (Homo sapiens)
Classify on ΔTm using lo (below 0.1 °C), med (0.1 °C to below 0.7 °C), hi (0.7 °C or more)

Which class holds O=C1C=C2C(=Nc3c2c2c(c4c3=NC3=C4CCC=C3)C=NC=2)CC1 ?
hi

Would you kindly repeat that for O=C(O)c1cc(N(Cc2ccccc2O)Cc2cc(O)ccc2O)ccc1O [LAVENDUSTIN A] ?
med

Try this compound next: CSc1nc(-c2ccc(F)cc2)c(-c2ccnc(NC(C)c3ccccc3)c2)[nH]1 (racemic)
lo

Proceed to Cc1c2ccncc2c(C)c2c1[nH]c1ccccc12 [ELLIPTECINE]
med

Query O=c1cc(N2CCOCC2)oc2c1ccc1ccccc12 next
lo

Thanks! And O=C1Nc2ccc(I)cc2/C1=C1/Nc2ccccc2/C1=N\O ?
hi

Query N#C/C(=C1/Nc2ccccc2S1)c1ccnc(NCCc2cccnc2)n1 next
hi

Continue with O=C(Nc1cccc(Nc2cc(Nc3cccc(C(F)(F)F)c3)ncn2)c1)C1CC1
lo

Record: N#C/C(=C\c1ccc(O)c(O)c1)C(=O)Nc1ccccc1
med

Same question, O=c1c2ccccc2[nH]c(=S)n1CCN1CCC(=C(c2ccc(F)cc2)c2ccc(F)cc2)CC1 [DIACYLGLYCEROL KINASE INHIBITOR II] this time
med

Next up: O=S(=O)(c1cccc2c(Cl)cccc12)N1CCCNCC1
lo

Here is the next compound: COc1cc(O)c2c(c1)oc(=O)c1c3cc(O)c(O)cc3oc21 [WEDELOLACTONE]
hi

Further, for Cc1cc(Nc2nc(-c3ccccc3)nc3ccccc23)n[nH]1 ?
hi

Could you do the same for NC1=N/C(=C2/CCNC(=O)c3[nH]ccc32)C(=O)N1 [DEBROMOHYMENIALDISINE] , please?
lo

Param item: NC(=O)c1ccc2[nH]c(-c3ccc(Oc4ccc(Cl)cc4)cc3)nc2c1
lo

Similarly, Oc1cc(O)cc(/C=C/c2ccc(O)c(O)c2)c1 [PICEATANNOL] ?
med

Likewise for COc1cc(/C=C/C(=O)CC(=O)/C=C/c2ccc(O)c(OC)c2)ccc1O [CURCUMIN] ?
hi

Next record, please: CCOC(=O)c1c(C)[nH]c(/C=C2\C(=O)Nc3ccccc32)c1C
lo

Another compound to look at: O=c1sn(Cc2ccccc2)c(=S)n1Cc1ccccc1
hi

Further, for N#C/C(=C\c1ccc(O)c(O)c1)C(=O)NCc1ccccc1 ?
med

What would you report for Cc1ccc(NC2=CC(=O)c3sc(C)nc3C2=O)cc1 ?
hi

Please answer likewise for Cc1ccc(NC(=O)c2cccc(N(C)C)c2)cc1NC(=O)c1ccc(O)cc1
lo

What do we get for O=c1cc(N2CCOCC2)oc2c(-c3ccccc3)cccc12 ?
hi

Same question, Cc1[nH]c(/C=C2\C(=O)Nc3ccc(S(=O)(=O)N(C)c4cccc(Cl)c4)cc32)c(C)c1C(=O)N1CCN(C)CC1 this time
lo

Now the compound CC(=O)O/N=C1/C(=C2/C(=O)Nc3cc(Br)ccc32)Nc2ccccc21 [6-BROMOINDIRUBIN-3'-ACETOXIME]
hi

What would you report for O=c1cc(-c2ccc(O)cc2)oc2cc(O)cc(O)c12 ?
hi

Okay, and N#C/C(=C(/N)Sc1ccc(N)cc1)c1ccccc1C(F)(F)F ?
med

Now consider CC(C)(C)c1nc2c3ccc(F)cc3c3c(=O)[nH]ccc3c2[nH]1 and answer again.
hi

Also Oc1ccc(-c2nc(-c3ccc(F)cc3)c(-c3ccncc3)[nH]2)cc1 ?
med

Can you handle Cc1cncc2cccc(S(=O)(=O)N3CCCNC[C@@H]3C)c12 next?
med

Try the compound Brc1c(Br)c(Br)c2[nH]nnc2c1Br [TETRABROMOBENZOTRIAZOLE]
med

Same again, this time with CCOC(=O)c1cnc2oc3ccc(O)cc3c2c1-c1ccccc1
hi

Further, for COc1ccc(CNc2nc(N(CCO)CCO)nc3c2ncn3C(C)C)cc1 ?
med

Query COc1ccc(CNC(=O)Nc2ncc([N+](=O)[O-])s2)cc1 next
lo

Field entry: O=C1NC(=O)c2c1c1c3ccccc3n3c1c1c2c2ccccc2n1C1CCC3O1
lo

Now the same for Nc1nccc(-c2c(-c3ccc(F)cc3)ncn2C2CCNCC2)n1
med

----------
- target of assay: Lymphokine-activated killer T-cell-originated protein kinase (Homo sapiens) (UniProt Q96KB5)
- Sequence (whole entry): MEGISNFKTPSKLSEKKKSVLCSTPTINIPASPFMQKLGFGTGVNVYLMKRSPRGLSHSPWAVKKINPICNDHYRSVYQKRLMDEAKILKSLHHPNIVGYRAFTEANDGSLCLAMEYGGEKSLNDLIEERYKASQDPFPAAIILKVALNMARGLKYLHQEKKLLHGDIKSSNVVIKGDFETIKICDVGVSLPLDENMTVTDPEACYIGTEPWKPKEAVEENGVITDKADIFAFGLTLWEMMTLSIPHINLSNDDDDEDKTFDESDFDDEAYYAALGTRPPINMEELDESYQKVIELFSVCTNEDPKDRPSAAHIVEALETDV
Binary classification by ΔTm, with 0.5 °C as an inclusive lower bound for TRUE; all other cases are FALSE.

API: above_or_equal(metric=ΔTm, cutoff=0.5 °C) for item CC[C@H](CO)Nc1nc(NCc2ccccc2)c2ncn(C(C)C)c2n1
TRUE

Follow-up item: C/C(O)=C(\C#N)C(=O)Nc1cc(Br)ccc1Br
TRUE

Moving on to the next compound: Cn1cc(C2=C(c3cn(CCCSC(=N)N)c4ccccc34)C(=O)NC2=O)c2ccccc21
FALSE

Next up: Brc1c(Br)c(Br)c2[nH]nnc2c1Br
FALSE

Try C[S+]([O-])c1ccc(-c2nc(-c3ccc(F)cc3)c(-c3ccncc3)[nH]2)cc1 (stereo unspecified) next.
FALSE

Please answer likewise for O=c1cc(N2CCOCC2)oc2c(-c3ccccc3)cccc12
FALSE

Also NCCNS(=O)(=O)c1cccc2c(Cl)cccc12 ?
FALSE

// next record O=c1cc(N2CCOCC2)oc2c1ccc1ccccc12
TRUE

Follow-up item: O=C1C(Cl)=C(N2C(=O)CCC2=O)C(=O)c2ccccc21
FALSE

Follow-up item: NC(=O)c1ccc(-c2nc(-c3ccc4c(c3)OCCO4)c(-c3ccccn3)[nH]2)cc1
FALSE

Same for C#Cc1cccc(Nc2ncnc3cc(OCCOC)c(OCCOC)cc23)c1
TRUE

Next: Cn1cnc2c(NCc3ccccc3)nc(NCCO)nc21
FALSE

Do the same for Cc1ccc(NC(=O)c2ccc(CN3CCN(C)CC3)cc2)cc1Nc1nccc(-c2cccnc2)n1 please
TRUE

And N#CCCc1ccc2c(c1)-c1[nH]c3ccc([N+](=O)[O-])cc3c1CC(=O)N2 ?
FALSE

Consider next the compound COc1cccc(-c2cc(=O)c3ccccc3o2)c1N in the same way.
TRUE

Also O=C1c2ccccc2-[n+]2ccc3c([nH]c4ccccc43)c21 [FASCAPLYSIN CHLORIDE] , if possible.
TRUE

Try O=c1c(-c2ccc(F)cc2)c(-c2ccncc2)[nH]n1-c1ccc(Cl)cc1 next.
TRUE
